Origin of values: paper PMC6112376

System: Caenorhabditis elegans strain PE255
Assay: In vivo C. elegans ATP status assay
Settings: 0.5–100μM
metric: effect on ATP content (in words)

>>> endpoint_result("O=C(Nc1ccc(Cl)cc1)Nc1ccc(Cl)c(Cl)c1")
"inhibited"
>>> endpoint_result("CO/C=C(/C(=O)OC)c1ccccc1COc1cccc(C(F)(F)F)n1")
"inhibited"
>>> endpoint_result("CC[C@@H](C(=O)[C@@H](C)[C@@H](O)[C@H](C)CCc1ccc(C)c(O)c1C(=O)O)[C@H]1O[C@](CC)([C@H]2CC[C@](O)(CC)[C@H](C)O2)C[C@@H]1C [Lasalocid sodium, reference compound]")
"inhibited"

----------
System: isolated rat liver mitochondria
Assay: Oxygen consumption, Clark-type oxygen electrode
Format: biochemical
Details: 100 µM
Field: II-ADP, % of control (O2 consumption rate). Provide a value for each of the compounds that follow.

**Q:** Which measured II-ADP, % of control (O2 consumption rate) belongs to CCC(C)c1cc([N+](=O)[O-])cc([N+](=O)[O-])c1O (stereo not shown) , tested on isolated rat liver mitochondria?
**A:** 12 (6.9) % of control

**Q:** Which measured II-ADP, % of control (O2 consumption rate) belongs to O=C1c2ccccc2C(=O)C1C(=O)C(c1ccccc1)c1ccc(Cl)cc1 (stereo not shown) , tested on isolated rat liver mitochondria?
**A:** 15 (9.9) % of control

**Q:** Which measured II-ADP, % of control (O2 consumption rate) belongs to CCCCCC[C@H]1C(=O)O[C@H](C)[C@H](NC(=O)c2cccc(NC=O)c2O)C(=O)O[C@@H](C)[C@@H]1OC(=O)CC(C)C [Antimycin A, reference compound] , tested on isolated rat liver mitochondria?
**A:** 7 (4.0) % of control

**Q:** Which measured II-ADP, % of control (O2 consumption rate) belongs to CO/C=C(/C(=O)OC)c1ccccc1COc1cccc(C(F)(F)F)n1 , tested on isolated rat liver mitochondria?
**A:** 7 (4.7) % of control

----------
Field: I-ADP, % of control (O2 consumption rate). Provide a value for each of the compounds that follow.
System: isolated rat liver mitochondria
Test: Oxygen consumption, Clark-type oxygen electrode
Type: biochemical
Conditions: 100 µM

**Q:** Which measured I-ADP, % of control (O2 consumption rate) belongs to CCCCCC[C@H]1C(=O)O[C@H](C)[C@H](NC(=O)c2cccc(NC=O)c2O)C(=O)O[C@@H](C)[C@@H]1OC(=O)CC(C)C [Antimycin A, reference compound] , tested on isolated rat liver mitochondria?
**A:** 9 (4.8) % of control

**Q:** Which measured I-ADP, % of control (O2 consumption rate) belongs to CO/C=C(/C(=O)OC)c1ccccc1COc1cccc(C(F)(F)F)n1 [Picoxystrobin] , tested on isolated rat liver mitochondria?
**A:** 8 (3.7) % of control

**Q:** Which measured I-ADP, % of control (O2 consumption rate) belongs to N#CC(C#N)=NNc1ccc(OC(F)(F)F)cc1 [FCCP, reference compound] , tested on isolated rat liver mitochondria?
**A:** 86 (39.1) % of control

**Q:** Which measured I-ADP, % of control (O2 consumption rate) belongs to C=C(c1ccc(C(=O)O)cc1)c1cc2c(cc1C)C(C)(C)CCC2(C)C [Bexarotene, reference compound] , tested on isolated rat liver mitochondria?
**A:** 5 (2.8) % of control

**Q:** Which measured I-ADP, % of control (O2 consumption rate) belongs to O=C(Nc1ccc([N+](=O)[O-])cc1Cl)c1cc(Cl)ccc1O [Niclosamide, reference compound] , tested on isolated rat liver mitochondria?
**A:** 93 (42.6) % of control

----------
Test system: HepG2 cells
Assay: cells
Conditions: Homo sapiens, HepG2, read-out: IC50 in HepG2 cells (MMP, tier-one retest)
metric: IC50

**Q:** Report IC50 for CCOCn1c(-c2ccc(Cl)cc2)c(C#N)c(Br)c1C(F)(F)F [Chlorfenapyr] please.
**A:** 40 nM

**Q:** Report IC50 for O=C(Nc1ccc(Cl)cc1)Nc1ccc(Cl)c(Cl)c1 [Triclocarban] please.
**A:** 170 nM

**Q:** Report IC50 for CC(C)(C)c1cc([N+](=O)[O-])cc(C(C)(C)C)c1O [2,6-di-tert-butyl-4-nitrophenol] please.
**A:** 110 nM

**Q:** Report IC50 for O=C(Nc1cccc(C(F)(F)F)c1)c1cc(Br)cc(Br)c1O [fluorosalan] please.
**A:** 190 nM

----------
Test system: Caenorhabditis elegans strain PE255
Assay: In vivo C. elegans ATP status assay
Details: Caenorhabditis elegans, read-out: LEC LUM: lowest effect concentration for luminescence, a measure of nematode ATP content
Field: minimal effective concentration. Provide a value for each of the compounds that follow.
Please state the figure in µM; there is no need to write the unit.

**Q:** Which measured minimal effective concentration belongs to O=C(Nc1ccccc1)Nc1cnns1 , tested on Caenorhabditis elegans strain PE255?
**A:** 50

**Q:** Which measured minimal effective concentration belongs to O=C1c2ccccc2C(=O)C1C(=O)C(c1ccccc1)c1ccc(Cl)cc1 (stereo not shown) , tested on Caenorhabditis elegans strain PE255?
**A:** 5

**Q:** Which measured minimal effective concentration belongs to O=C1CCC(N2C(=O)c3ccccc3C2=O)C(=O)N1 (stereo not shown) [Thalidomide] , tested on Caenorhabditis elegans strain PE255?
**A:** 75

**Q:** Which measured minimal effective concentration belongs to O=C(Nc1ccc(Cl)cc1)Nc1ccc(Cl)c(Cl)c1 , tested on Caenorhabditis elegans strain PE255?
**A:** 0.5

**Q:** Which measured minimal effective concentration belongs to CCC(C)c1cc([N+](=O)[O-])cc([N+](=O)[O-])c1O (stereo not shown) , tested on Caenorhabditis elegans strain PE255?
**A:** 50

**Q:** Which measured minimal effective concentration belongs to Cc1cc(Cc2cc(C)cc(C(C)(C)C)c2O)c(O)c(C(C)(C)C)c1 , tested on Caenorhabditis elegans strain PE255?
**A:** 50

**Q:** Which measured minimal effective concentration belongs to NNc1nc(-c2ccc(N)cc2)cs1 [2-Hydrazino-4-(4-aminophenyl) thiazole] , tested on Caenorhabditis elegans strain PE255?
**A:** 25

----------
Test system: isolated rat liver mitochondria
Experiment: Oxygen consumption, Clark-type oxygen electrode
Format: biochemical
Conditions: 0.8 µM
Field: II-ADP, % of control (O2 consumption rate). Provide a value for each of the compounds that follow.

**Q:** Report II-ADP, % of control (O2 consumption rate) for O=C(Nc1ccccc1)Nc1cnns1 [Thidiazuron] please.
**A:** 93 (82.2) % of control

**Q:** Report II-ADP, % of control (O2 consumption rate) for CO/C=C(/C(=O)OC)c1ccccc1COc1cccc(C(F)(F)F)n1 [Picoxystrobin] please.
**A:** 9 (7.1) % of control

**Q:** Report II-ADP, % of control (O2 consumption rate) for CC[C@@H](C(=O)[C@@H](C)[C@@H](O)[C@H](C)CCc1ccc(C)c(O)c1C(=O)O)[C@H]1O[C@](CC)([C@H]2CC[C@](O)(CC)[C@H](C)O2)C[C@@H]1C [Lasalocid sodium, reference compound] please.
**A:** 57 (34.1) % of control

**Q:** Report II-ADP, % of control (O2 consumption rate) for C=C(c1ccc(C(=O)O)cc1)c1cc2c(cc1C)C(C)(C)CCC2(C)C [Bexarotene, reference compound] please.
**A:** 84 (65.0) % of control

**Q:** Report II-ADP, % of control (O2 consumption rate) for O=C1c2c(O)ccc([N+](=O)[O-])c2C(=O)c2c([N+](=O)[O-])ccc(O)c21 [1,8-Dihydroxy-4,5-dinitroanthraquinone] please.
**A:** 102 (78.8) % of control

**Q:** Report II-ADP, % of control (O2 consumption rate) for O=C1c2ccccc2C(=O)C1C(=O)C(c1ccccc1)c1ccc(Cl)cc1 (stereo not shown) [Chlorophacinone] please.
**A:** 107 (72.3) % of control

**Q:** Report II-ADP, % of control (O2 consumption rate) for C=C(C)[C@H]1Cc2c(ccc3c2O[C@@H]2COc4cc(OC)c(OC)cc4[C@@H]2C3=O)O1 [Rotenone, reference compound] please.
**A:** 99 (88.3) % of control

----------
Record set of Rat hepatocytes (efficacy) (MMP) for target or system rat primary hepatocytes.

**Q:** Report Rat hepatocytes (efficacy) (MMP) for O=C(Nc1ccc([N+](=O)[O-])cc1Cl)c1cc(Cl)ccc1O [Niclosamide, reference compound] please.
**A:** 1.36±0.16 ( −107±13.5 ) %

**Q:** Report Rat hepatocytes (efficacy) (MMP) for CO/C=C(/C(=O)OC)c1ccccc1COc1cccc(C(F)(F)F)n1 please.
**A:** 16.1±7.03 ( −77.3±9.18 ) %

**Q:** Report Rat hepatocytes (efficacy) (MMP) for N#CC(c1ccc(Cl)cc1)c1c(Cl)cc(-n2ncc(=O)[nH]c2=O)cc1Cl (centres unmarked) [Diclazuril, reference compound] please.
**A:** 11.5±5.18 ( −72.8±2.37 ) %

**Q:** Report Rat hepatocytes (efficacy) (MMP) for C=C(c1ccc(C(=O)O)cc1)c1cc2c(cc1C)C(C)(C)CCC2(C)C [Bexarotene, reference compound] please.
**A:** 39.9±5.09 ( −93.8±8.55 ) %

**Q:** Report Rat hepatocytes (efficacy) (MMP) for O=C(Nc1ccccc1)Nc1ccccc1 please.
**A:** 15.4±2.88 ( −117±8.21 ) %

**Q:** Report Rat hepatocytes (efficacy) (MMP) for CC(C)(C)c1cc([N+](=O)[O-])cc([N+](=O)[O-])c1O please.
**A:** 2.39±1.02 ( −105±23.8 ) %

**Q:** Report Rat hepatocytes (efficacy) (MMP) for CO[C@H]1/C=C/O[C@@]2(C)Oc3c(C)c(O)c4c(O)c(c(/C=N/N5CCN(C6CCCC6)CC5)c(O)c4c3C2=O)NC(=O)/C(C)=C\C=C\[C@H](C)[C@H](O)[C@@H](C)[C@@H](O)[C@@H](C)[C@H](OC(C)=O)[C@@H]1C [Rifapentine, reference compound] please.
**A:** 5.94±1.48 ( −73.4±10.2 ) %

**Q:** Report Rat hepatocytes (efficacy) (MMP) for CCOCn1c(-c2ccc(Cl)cc2)c(C#N)c(Br)c1C(F)(F)F please.
**A:** 0.34±0.11 ( −90.8±10.1 ) %
